System: LNCaP prostate adenocarcinoma cell line
Test Details: DIMSCAN cytotoxicity, fenretinide + L-threo-sphinganines 3:1 (Example B16)
Format: cell-based, human
Experimental Parameters: LNCaP.FGC; 4-HPR 1.5 μM + L-threo-sphinganine 0.5 μM
A collection of compounds and their measured Fa
API note: the answer field is a bare number with no unit suffix.

compound="CCCCCCCCC[C@H](O)[C@@H](N)CO [C12]" reading=0.870
compound="CCCCCCCCCCCCCC[C@H](O)[C@@H](N)CO [C17, (2S,3S)-2-amino-1,3-heptadecanediol]" reading=0.887
compound="CCCCCCCCCCCCCCCCC[C@H](O)[C@@H](N)CO [C20, (2S,3S)-2-amino-1,3-icosanediol]" reading=0.812

Look at this compound and give its reported Fa. CCCCCCCCCCCCCCCC[C@H](O)[C@@H](N)CO [C19, (2S,3S)-2-amino-1,3-nonadecanediol] 0.697

Look at this compound and give its reported Fa. CCCCCCCCCCCCCCC[C@H](O)[C@@H](N)CO [C18, (2S,3S)-2-amino-1,3-octadecanediol, reference compound] 0.752

---

Test system: SJ-G2 Glioblastoma cell line
Test Details: DIMSCAN cytotoxicity, fenretinide + L-threo-sphinganines 3:1 (Example B8)
Assay type: cell-based, human
Experimental Parameters: 4-HPR 6 μM + L-threo-sphinganine 2 μM, 96 h
Observed Property: CI (Combination Index)
API note: the answer field is a bare number with no unit suffix.

Worked cases, CI (Combination Index) given:
compound="CCCCCCCCCCCCCCCCCC[C@H](O)[C@@H](N)CO [C21]" observed_property="CI (Combination Index)" reading=1.5
compound="CCCCCCCCCCC[C@H](O)[C@@H](N)CO [C14]" observed_property="CI (Combination Index)" reading=1.4
compound="CCCCCCCCCCCCCCC[C@H](O)[C@@H](N)CO [C18, (2S,3S)-2-amino-1,3-octadecanediol, reference compound]" observed_property="CI (Combination Index)" reading=0.5
compound="CCCCCCCCCCCCCCCC[C@H](O)[C@@H](N)CO [C19, (2S,3S)-2-amino-1,3-nonadecanediol]" observed_property="CI (Combination Index)" reading=0.6
compound="CCCCCCCCC[C@H](O)[C@@H](N)CO [C12]" observed_property="CI (Combination Index)" reading=0.8
compound="CCCCCCCCCCCCCC[C@H](O)[C@@H](N)CO [C17, (2S,3S)-2-amino-1,3-heptadecanediol]" observed_property="CI (Combination Index)" reading=0.6
compound="CCCCCCCCCCCC[C@H](O)[C@@H](N)CO [C15]" observed_property="CI (Combination Index)" reading=1.3

Could you now look at the following compound, please?
Look at this compound and give its reported CI (Combination Index). CCCCCCCCCCCCCCCCC[C@H](O)[C@@H](N)CO [C20, (2S,3S)-2-amino-1,3-icosanediol] 1.1

---

A collection of compounds and their measured CI (Combination Index)
Tested on: U-118 Glioblastoma cell line
Test Details: DIMSCAN cytotoxicity, fenretinide + L-threo-sphinganines 3:1 (Example B5)
Type: cell-based, human
Design: key: CI<0.9 synergy, 0.9-1.1 additive, >1.1 antagonistic
Experimental Parameters: U-118 MG; 4-HPR 9 μM + L-threo-sphinganine 3 μM; 96 h
API note: the answer field is a bare number with no unit suffix.

Look at this compound and give its reported CI (Combination Index). CCCCCCCCCCC[C@H](O)[C@@H](N)CO 0.4

Look at this compound and give its reported CI (Combination Index). CCCCCCCCCCCC[C@H](O)[C@@H](N)CO 0.1

Look at this compound and give its reported CI (Combination Index). CCCCCCCCCCCCCCCCCC[C@H](O)[C@@H](N)CO 0.5

Look at this compound and give its reported CI (Combination Index). CCCCCCCCCCCCCC[C@H](O)[C@@H](N)CO 0.7

Look at this compound and give its reported CI (Combination Index). CCCCCCCCCCCCCCCC[C@H](O)[C@@H](N)CO 0.3

Look at this compound and give its reported CI (Combination Index). CCCCCCCCC[C@H](O)[C@@H](N)CO 0.2

Look at this compound and give its reported CI (Combination Index). CCCCCCCCCCCCCCCCC[C@H](O)[C@@H](N)CO 0.3

Look at this compound and give its reported CI (Combination Index). CCCCCCCCCCCCCCC[C@H](O)[C@@H](N)CO [C18, (2S,3S)-2-amino-1,3-octadecanediol, reference compound] 0.3

---

Test system: MDA-MB-231 breast adenocarcinoma cell line
Test Details: DIMSCAN cytotoxicity, fenretinide + L-threo-sphinganines 3:1 (Example B14)
Format: cell-based, human
Experimental Parameters: MDA-MB-231, 20% O2; 4-HPR 6 μM + L-threo-sphinganine 2 μM; 96 h
A collection of compounds and their measured Fa (fraction affected)

Worked cases, Fa (fraction affected) given:
compound="CCCCCCCCC[C@H](O)[C@@H](N)CO [C12]" observed_property="Fa (fraction affected)" reading=0.272
compound="CCCCCCCCCCCCCCC[C@H](O)[C@@H](N)CO [C18, (2S,3S)-2-amino-1,3-octadecanediol, reference compound]" observed_property="Fa (fraction affected)" reading=0.597
compound="CCCCCCCCCCCCCCCC[C@H](O)[C@@H](N)CO [C19, (2S,3S)-2-amino-1,3-nonadecanediol]" observed_property="Fa (fraction affected)" reading=0.503
compound="CCCCCCCCCCCCCCCCC[C@H](O)[C@@H](N)CO [C20, (2S,3S)-2-amino-1,3-icosanediol]" observed_property="Fa (fraction affected)" reading=0.583

Could you now look at the following compound, please?
Look at this compound and give its reported Fa (fraction affected). CCCCCCCCCCCCCC[C@H](O)[C@@H](N)CO [C17, (2S,3S)-2-amino-1,3-heptadecanediol] 0.610

---

Tested on: CRL-2091 normal human fibroblast cell line
Test Details: DIMSCAN cytotoxicity, fenretinide + L-threo-sphinganines 3:1 (Example B1)
Type: cell-based
Experimental Parameters: CRL-2091, 20% O2; 4-HPR 9 μM + L-threo-sphinganine 3 μM; 96 h
Observed Property: Fa (fraction affected)
API note: the answer field is a bare number with no unit suffix.

Worked cases, Fa (fraction affected) given:
compound="CCCCCCCCC[C@H](O)[C@@H](N)CO [C12]" observed_property="Fa (fraction affected)" reading=0.54
compound="CCCCCCCCCCCC[C@H](O)[C@@H](N)CO [C15]" observed_property="Fa (fraction affected)" reading=0.66
compound="CCCCCCCCCCC[C@H](O)[C@@H](N)CO [C14]" observed_property="Fa (fraction affected)" reading=0.69

Look at this compound and give its reported Fa (fraction affected). CCCCCCCCCCCCCCC[C@H](O)[C@@H](N)CO [C18, (2S,3S)-2-amino-1,3-octadecanediol, reference compound] 0.73

Look at this compound and give its reported Fa (fraction affected). CCCCCCCCCCCCCC[C@H](O)[C@@H](N)CO [C17, (2S,3S)-2-amino-1,3-heptadecanediol] 0.62

---

A collection of molecules and their measured Fa (fraction affected)
Tested on: A-549 lung adenocarcinoma cell line
Test Details: DIMSCAN cytotoxicity, fenretinide + L-threo-sphinganines 3:1 (Example B13)
Format: cell-based, human
Experimental Parameters: 4-HPR 9 μM + L-threo-sphinganine 3 μM, 96 h
API note: the answer field is a bare number with no unit suffix.

Worked cases, Fa (fraction affected) given:
molecule="CCCCCCCCCCCCCCCCCC[C@H](O)[C@@H](N)CO [C21]" reading=0.972
molecule="CCCCCCCCCCCCCCCCC[C@H](O)[C@@H](N)CO [C20, (2S,3S)-2-amino-1,3-icosanediol]" reading=0.499

Look at this molecule and give its reported Fa (fraction affected). CCCCCCCCCCCCCC[C@H](O)[C@@H](N)CO [C17, (2S,3S)-2-amino-1,3-heptadecanediol] 0.010

---

Test system: MDA-MB-231 breast adenocarcinoma cell line
Test Details: DIMSCAN cytotoxicity, fenretinide + L-threo-sphinganines 3:1 (Example B14)
Assay type: cell-based, human
Experimental Parameters: MDA-MB-231, 20% O2; 4-HPR 1.5 μM + L-threo-sphinganine 0.5 μM; 96 h
Observed Property: Fa (fraction affected)
API note: the answer field is a bare number with no unit suffix.

Look at this molecule and give its reported Fa (fraction affected). CCCCCCCCC[C@H](O)[C@@H](N)CO 1E−07

Look at this molecule and give its reported Fa (fraction affected). CCCCCCCCCCCCCC[C@H](O)[C@@H](N)CO 0.127

Look at this molecule and give its reported Fa (fraction affected). CCCCCCCCCCCCCCC[C@H](O)[C@@H](N)CO [C18, (2S,3S)-2-amino-1,3-octadecanediol, reference compound] 0.088

Look at this molecule and give its reported Fa (fraction affected). CCCCCCCCCCCCCCCCC[C@H](O)[C@@H](N)CO 0.011

Look at this molecule and give its reported Fa (fraction affected). CCCCCCCCCCCCCCCC[C@H](O)[C@@H](N)CO 0.078
